system_name: Kelch-like ECH-associated protein 1 (Homo sapiens)
assay_text: Binding affinity to human KEAP1 Kelch domain (322 to 609 residues) incubated for 60 mins by TR-FRET assay
quantity: IC50

          substance   result
0  Ac-LDEQTGEFL-NH2  > 64 µM

* * *

system_name: Kelch-like ECH-associated protein 1 (Homo sapiens, UniProt Q14145)
Sequence (Q14145 whole entry, the tested form may be a part): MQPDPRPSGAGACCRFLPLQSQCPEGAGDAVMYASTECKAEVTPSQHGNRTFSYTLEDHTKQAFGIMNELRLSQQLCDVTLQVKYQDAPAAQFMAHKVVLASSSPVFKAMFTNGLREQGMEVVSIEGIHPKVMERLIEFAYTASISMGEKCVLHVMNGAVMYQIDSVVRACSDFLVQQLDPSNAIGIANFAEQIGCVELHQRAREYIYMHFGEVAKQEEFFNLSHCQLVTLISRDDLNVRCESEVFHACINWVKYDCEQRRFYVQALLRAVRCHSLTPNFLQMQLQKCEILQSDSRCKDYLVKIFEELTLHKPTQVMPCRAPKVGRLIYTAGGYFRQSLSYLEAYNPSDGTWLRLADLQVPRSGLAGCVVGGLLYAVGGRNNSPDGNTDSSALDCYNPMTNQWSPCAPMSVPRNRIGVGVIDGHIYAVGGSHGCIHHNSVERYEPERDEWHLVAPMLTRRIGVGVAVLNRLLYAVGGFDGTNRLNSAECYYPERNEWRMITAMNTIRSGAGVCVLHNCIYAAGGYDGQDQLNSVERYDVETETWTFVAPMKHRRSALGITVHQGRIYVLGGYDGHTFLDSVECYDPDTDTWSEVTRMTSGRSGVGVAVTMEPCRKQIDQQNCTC
pIC50: −log10 of the molar value. Non-standard residues stand in square brackets, D forms with d. Residues, ends and D or L forms follow the SMILES beside them. Phe(4-CONH2) = NC(=O)c1ccc(C[C@H](N)C(=O)O)cc1; Pro(cis-4-F) = O=C(O)[C@@H]1C[C@H](F)CN1; hPhe = N[C@@H](CCc1ccccc1)C(=O)O; hSer = N[C@@H](CCO)C(=O)O
// reported pIC50 for each item listed

molecule	pIC50
CC(=O)N[C@@H](CC(C)C)C(=O)N[C@@H](CC(=O)O)C(=O)N1C[C@@H](F)C[C@H]1C(=O)N[C@@H](CCC(=O)O)C(=O)N[C@@H](Cc1ccccc1)C(=O)NCC(=O)N[C@@H](CCC(=O)O)C(=O)N[C@@H](Cc1ccccc1)C(=O)N[C@@H](CC(C)C)C(N)=O (Ac-LD[Pro(cis-4-F)]EFGEFL-NH2)	< 4.19
CC(=O)N[C@@H](CC(C)C)C(=O)N[C@@H](CC(=O)O)C(=O)N[C@@H](CCC(=O)O)C(=O)N[C@@H](CCC(=O)O)C(=O)N[C@H](C(=O)NCC(=O)N[C@@H](CCO)C(=O)N[C@@H](Cc1ccccc1)C(=O)N[C@@H](CC(C)C)C(N)=O)[C@@H](C)O (Ac-LDEETG[hSer]FL-NH2)	< 4.30
CC(=O)N[C@@H](CC(C)C)C(=O)N[C@@H](CC(=O)O)C(=O)N[C@@H](CCC(=O)O)C(=O)N[C@@H](CCC(=O)O)C(=O)N[C@H](C(=O)NCC(=O)N[C@@H](Cc1ccc(C(N)=O)cc1)C(=O)N[C@@H](Cc1ccccc1)C(=O)N[C@@H](CC(C)C)C(N)=O)[C@@H](C)O (Ac-LDEETG[Phe(4-CONH2)]FL-NH2)	< 4.19
CC(=O)N[C@@H](CC(C)C)C(=O)N[C@@H](CC(=O)O)C(=O)N[C@@H](CCC(=O)O)C(=O)N[C@@H](CCc1ccccc1)C(=O)N[C@H](C(=O)NCC(=O)N[C@@H](CCC(=O)O)C(=O)N[C@@H](Cc1ccccc1)C(=O)N[C@@H](CC(C)C)C(N)=O)[C@@H](C)O (Ac-LDE[hPhe]TGEFL-NH2)	< 4.19

// data source = ChEMBL document CHEMBL4665857
